# System: morningglory
# PROTOCOL_DESCRIPTION: Test A pre-/postemergence greenhouse test
# Format: in vivo, Ipomoea spp.
# RUN_CONDITIONS: Postemergence, 500 g ai/ha; 0 to 100 scale, 0 is no effect, 100 is complete control
Measured Morningglory plant response rating values are reported for all entries that follow.
# output: bare number, no unit

Example entries begin here.
[
  {
    "COMPOUND": "CCc1cc[n+]([O-])c([S+]([O-])Cc2c(C(F)(F)F)nn(C)c2OC(F)F)c1 (stereo not drawn)",
    "Morningglory plant response rating": 100
  },
  {
    "COMPOUND": "Cn1nc(C(F)(F)F)c(C[S+]([O-])c2cc(C(C)(C)C)cc[n+]2[O-])c1OC(F)F (racemic)",
    "Morningglory plant response rating": 90
  }
]

Please fill in: Morningglory plant response rating reported for [O-][n+]1cc(Cl)ccc1[S+]([O-])Cc1c(C(F)(F)F)nn(CC(F)(F)F)c1Cl (stereo not drawn) = 90

Please fill in: Morningglory plant response rating reported for `Cn1nc(C(F)(F)F)c(CS(=O)(=O)c2ccc(Cl)c[n+]2[O-])c1OCC(F)(F)F` = 20

Please fill in: Morningglory plant response rating reported for `Cc1cc[n+]([O-])c(S(=O)(=O)Cc2c(C(F)(F)C(F)(F)F)nn(C)c2OCC(F)(F)F)c1` = 50

Please fill in: Morningglory plant response rating reported for CC(c1c(C(F)(F)F)nn(C)c1Cl)S(=O)(=O)c1cccc[n+]1[O-] (stereo not drawn) = 90

Please fill in: Morningglory plant response rating reported for CC(c1c(C(F)(F)F)nn(C)c1OC(F)F)S(=O)(=O)c1cc(C(C)(C)C)cc[n+]1[O-] (racemic) = 30

----------
# Test system: downy brome
# PROTOCOL_DESCRIPTION: Test C pre-/postemergence test
# Assay type: in vivo, Bromus tectorum
# RUN_CONDITIONS: Preemergence, 250 g ai/ha
OUTCOME_MEASURE: Plant response rating (0 to 100), Bromegrass, Downy
# output: bare number, no unit

Example entries begin here.
[
  {
    "MOLECULE": "CC(c1c(C(F)(F)F)nn(C)c1OC(F)F)S(=O)(=O)c1cccc[n+]1[O-] (centres unmarked)",
    "REPORTED": 60
  },
  {
    "MOLECULE": "Cc1cc[n+]([O-])c([S+]([O-])Cc2c(C(F)(F)F)nn(C)c2OCC(F)(F)F)c1 (racemic)",
    "REPORTED": 60
  },
  {
    "MOLECULE": "Cn1nc(C(F)(F)F)c(C[S+]([O-])c2cccc[n+]2[O-])c1OC(F)F (centres unmarked)",
    "REPORTED": 100
  },
  {
    "MOLECULE": "Cn1nc(C(F)(F)F)c(CS(=O)(=O)c2ccc(Cl)c[n+]2[O-])c1Cl",
    "REPORTED": 0
  },
  {
    "MOLECULE": "Cn1nc(C(F)(F)F)c(CS(=O)(=O)c2cc(C(C)(C)C)cc[n+]2[O-])c1OC(F)F",
    "REPORTED": 50
  }
]

Please fill in: Plant response rating (0 to 100), Bromegrass, Downy reported for CC(c1c(C(F)(F)F)nn(C)c1OC(F)F)S(=O)(=O)c1cc(C(C)(C)C)cc[n+]1[O-] (racemic) = 60

Please fill in: Plant response rating (0 to 100), Bromegrass, Downy reported for Cn1nc(C(F)(F)F)c(C[S+]([O-])c2cccc[n+]2[O-])c1Cl (centres unmarked) = 85

Please fill in: Plant response rating (0 to 100), Bromegrass, Downy reported for `Cc1cc[n+]([O-])c(S(=O)(=O)Cc2c(C(F)(F)F)nn(C)c2OCC(F)(F)F)c1` = 80

src = patent US20100298141A1
